experimental target: Integrin alpha-V/beta-3 (Homo sapiens, UniProt P05106+P06756)
Sequence (P05106 27-788 limits assumed): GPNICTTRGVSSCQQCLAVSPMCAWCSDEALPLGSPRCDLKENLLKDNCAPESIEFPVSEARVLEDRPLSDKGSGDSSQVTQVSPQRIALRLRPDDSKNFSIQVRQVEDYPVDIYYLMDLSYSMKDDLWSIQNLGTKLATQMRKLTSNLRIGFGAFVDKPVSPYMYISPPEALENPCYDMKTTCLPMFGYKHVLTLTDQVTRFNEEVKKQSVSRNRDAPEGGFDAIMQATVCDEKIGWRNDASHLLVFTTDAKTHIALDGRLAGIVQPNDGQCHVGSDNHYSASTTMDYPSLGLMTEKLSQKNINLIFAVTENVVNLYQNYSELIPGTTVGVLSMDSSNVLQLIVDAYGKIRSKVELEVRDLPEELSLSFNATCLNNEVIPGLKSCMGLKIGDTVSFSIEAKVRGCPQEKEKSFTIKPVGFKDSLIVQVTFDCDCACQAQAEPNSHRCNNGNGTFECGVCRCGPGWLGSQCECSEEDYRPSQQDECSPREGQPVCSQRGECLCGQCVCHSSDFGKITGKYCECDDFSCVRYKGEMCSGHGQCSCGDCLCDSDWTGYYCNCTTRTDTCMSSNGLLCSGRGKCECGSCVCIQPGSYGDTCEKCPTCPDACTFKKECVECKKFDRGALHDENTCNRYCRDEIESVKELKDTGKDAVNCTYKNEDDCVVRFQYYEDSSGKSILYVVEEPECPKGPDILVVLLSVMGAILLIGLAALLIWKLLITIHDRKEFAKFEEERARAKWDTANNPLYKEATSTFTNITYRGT
Sequence (P06756 31-889 limits assumed): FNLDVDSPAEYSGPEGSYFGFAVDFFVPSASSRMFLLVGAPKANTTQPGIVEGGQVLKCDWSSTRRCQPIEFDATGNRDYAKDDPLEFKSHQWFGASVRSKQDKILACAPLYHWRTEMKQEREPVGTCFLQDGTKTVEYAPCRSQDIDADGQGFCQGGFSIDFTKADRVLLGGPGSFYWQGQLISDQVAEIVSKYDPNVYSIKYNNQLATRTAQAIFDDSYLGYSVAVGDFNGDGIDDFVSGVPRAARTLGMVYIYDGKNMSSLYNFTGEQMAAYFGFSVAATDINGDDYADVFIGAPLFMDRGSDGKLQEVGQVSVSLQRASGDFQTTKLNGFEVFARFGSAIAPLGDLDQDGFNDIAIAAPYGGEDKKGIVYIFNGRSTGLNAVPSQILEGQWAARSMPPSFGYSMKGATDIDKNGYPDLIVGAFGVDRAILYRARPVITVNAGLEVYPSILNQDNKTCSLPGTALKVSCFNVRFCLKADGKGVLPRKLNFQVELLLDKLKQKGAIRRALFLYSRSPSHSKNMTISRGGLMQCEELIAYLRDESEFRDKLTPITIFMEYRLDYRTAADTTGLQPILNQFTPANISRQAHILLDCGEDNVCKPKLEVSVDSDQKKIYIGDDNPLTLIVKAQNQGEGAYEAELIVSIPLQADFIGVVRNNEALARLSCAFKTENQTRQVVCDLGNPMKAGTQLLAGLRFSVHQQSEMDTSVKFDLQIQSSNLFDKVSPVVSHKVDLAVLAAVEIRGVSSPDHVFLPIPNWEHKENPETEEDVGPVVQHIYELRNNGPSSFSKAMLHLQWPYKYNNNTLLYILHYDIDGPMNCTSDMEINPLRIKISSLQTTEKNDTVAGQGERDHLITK
Sequence (P06756 891-1048 limits assumed): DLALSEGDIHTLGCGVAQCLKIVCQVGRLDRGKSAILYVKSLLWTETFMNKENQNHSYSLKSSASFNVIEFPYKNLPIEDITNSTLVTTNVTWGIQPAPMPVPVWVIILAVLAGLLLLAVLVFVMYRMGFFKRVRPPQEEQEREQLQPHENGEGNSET
assay details: Inhibition of human vitronectin binding to immobilized Alpha v beta-3

compound	IC50 (nM)
O=C(O)CC(CCC1CCN(C(=O)Cc2ccc3c(n2)NCCC3)CC1)c1ccc2c(c1)OCO2 (centres undefined)	75
O=C(O)CC(NC(=O)C1CCN(C(=O)CCc2ccc3c(n2)NCCC3)CC1)c1ccc2c(c1)OCO2 (centres undefined)	21.7
O=C(O)CC(c1ccc2c(c1)OCO2)C1CCN(C(=O)CCc2ccc3c(n2)NCCC3)CC1 (centres undefined)	28.1

====

Listed here are molecules together with their documented pIC50.
experimental target: Integrin alpha-V/beta-3 (Homo sapiens, UniProt P05106+P06756)
assay details: Inhibition of human vitronectin binding to immobilized Alpha v beta-3
pIC50: −log10 of the molar value.
measurement type: pIC50

molecule	endpoint value
O=C(O)CC(CC1CCN(C(=O)CCCc2ccc3c(n2)NCCC3)CC1)c1ccc2c(c1)OCO2 (stereo not given)	7.69
COc1ncc(C(CC(=O)O)CC2CCN(C(=O)CCc3ccc4c(n3)NCCC4)CC2)c(OC)n1 (stereo not given)	8.82
O=C(O)CC(NC(=O)C1CCN(C(=O)c2cccc(NC3=CCCCN3)c2)CC1)c1ccc2c(c1)OCO2 (stereo not given)	7.98
O=C(O)CC(NC(=O)C1CCN(C(=O)CCCNC2=NCCN2)CC1)c1cnc2ccccc2c1 (stereo not given)	8.55
O=C(O)CC(NC(=O)C1CCN(C(=O)CCc2ccc3c(n2)NCCC3)CC1)c1cnc2ccccc2c1 (stereo not given)	8.59
